Where do the numbers come from? From ChEMBL document CHEMBL1144842.

# experimental details: Half life in mouse at 70.9 umol/kg, po
# Assay type: ADME, organism-based
# particulars: in vivo

smiles data: CCNCc1cnc(-c2ccc(C(=O)Nc3ccccc3N)cc2)s1
half-life / h: 1.1

----------
# experimental details: Half life in Beagle dog at 0.8 umol/kg, iv
# Assay type: ADME, organism-based, Canis lupus familiaris
# particulars: in vivo

smiles data: CCNC(=O)c1ccc(CN2CCC(c3ccc(C(=O)Nc4ccccc4N)cc3)CC2)cc1
half-life (h): 10.2

----------
# experimental details: Unbound ligand in Han Wistar rat plasma at 10 umol/kg, po
# Type: ADME, organism-based

smiles data: CN(C)C(=O)c1ccc(CN2CCC(c3ccc(C(=O)Nc4ccccc4N)cc3)CC2)cc1
fraction unbound: 0.28
